Assay: Cytotoxicity in human Huh-7.5.1 cells assessed as reduction in cell viability incubated for 72 hrs by CellTiter-Glo luminescent cell viability assay
Type: toxicity, cell-based, Huh7.5.1
observable: CC50 at 72 h (µM)
Form entry: value (µM) — number only.

Example entries begin here.
compound="COc1cc(OCC(=O)N/N=C/c2ccc(Br)cc2)cc2c1CCC(c1cc(OC)c(OC)c(OC)c1)O2 (centres undefined)" observable="CC50 at 72 h" observed_result=152
compound="COc1cc(OCC(=O)N/N=C/c2ccc(Cl)cc2)cc2c1CCC(c1cc(OC)c(OC)c(OC)c1)O2 (centres undefined)" observable="CC50 at 72 h" observed_result=89.8
compound="COc1cc(OCC(=O)N/N=C/c2ccc(C)cc2)cc2c1CCC(c1cc(OC)c(OC)c(OC)c1)O2 (centres undefined)" observable="CC50 at 72 h" observed_result=103

Next compound, please.
CC50 at 72 h lookup needed for COc1cc(OCC(=O)N/N=C/c2ccc(Cl)s2)cc2c1CCC(c1cc(OC)c(OC)c(OC)c1)O2 (centres undefined) , thanks.
83.3
